Protocol: Solubility of the salt in water
Observation type: solubility in water

Record excerpt, results attached:
• COc1ccc(C(=O)Oc2cccc3[nH]cc(CCN(C)C)c23)cc1 [C(Va1)] = ≥ 10 mg per mL
• COc1ccc(C(=O)Oc2cccc3[nH]cc(CCN(C)C)c23)cc1.O=C(O)C(O)C(O)C(=O)O [C(Va2)] = ≥ 10 mg per mL
• COc1ccc(C(=O)Oc2cccc3[nH]cc(CCN(C)C)c23)cc1 [C(Vb1)] = < 1 mg in a mL

Kindly review the next molecule as well.
Complete the entry with solubility in water for CN(C)CCc1c[nH]c2cccc(OC(=O)SCc3ccccc3)c12.Cl [E(VIa1)] ≥ 10 mg per mL
